test system: UO-31 renal; experiment: NCI-60 one-dose screen, 48 h (100 = growth as untreated, 0 = no growth, -100 = all killed); details: 10 µM unless noted
Compounds without any hit were thinned out: in the full panel of roughly 83,000, 20% have a hit.
Using growth as the sorting value, the categories are group A = under 30%, group B = from 30% up to 80%, group C = 80% and over

CN1CCN(Cc2ccc(NC(=O)c3cncc(C#Cc4cnc5ccc(N)nn45)c3)cc2C(F)(F)F)CC1
group C

Q: Lab note: sort CCN(CC)c1ccc(/C=N/NC(=O)c2ccc(NS(C)(=O)=O)cc2)c(O)c1 into the matching growth band.
Ans: group A

Q: Lab note: sort O=C(CSc1nc2ccccc2c(=O)n1-c1ccccc1)N/N=C/c1ccc(Oc2ccc(Br)cc2)cc1 into the matching growth band.
Ans: group C

Q: Lab note: sort CN1c2ccccc2Sc2cc(/C=N/Nc3ccnc4cc(Cl)ccc34)ccc21 into the matching growth band.
Ans: group C

Q: Lab note: sort O=C(NNc1nc2cc(F)cc(F)c2n2cccc12)c1cccnn1 into the matching growth band.
Ans: group A

Q: Lab note: sort Cc1ccc(NC(=O)Nc2nc3ccc([N+](=O)[O-])cc3s2)cc1 into the matching growth band.
Ans: group A

Q: Lab note: sort COc1ccc(N2CCN(C3=C(Cl)C(=O)c4ncccc4C3=O)CC2)cc1 into the matching growth band.
Ans: group A

Q: Lab note: sort Cc1[nH]c(C(=O)Nc2ccccc2OCc2cccc(C(=O)NC3CCCNC3)c2)c(Cl)c1Cl (stereo not drawn) into the matching growth band.
Ans: group A
